Just for reference, ChEMBL document CHEMBL1201862 is where these values come from.

tested on: SNB-75; test: NCI tumour cell line growth inhibition, 48 h
Active and inactive are the calls of the source. No stated cut-off is given here; in the data, active = GI50 up to about 1.1 µM and inactive = higher.
Outcome (select one): class 1 = active, class 0 = inactive

Call for entry COc1cccc(/C=C/C(=O)N2CC(CCl)c3c2cc(N)c2ccccc32)c1 (stereo not given) : class 1

Dear all, I need the recorded test outcome for NCCn1cnc2nc(NC(=O)c3ccccc3)[nH]c(=O)c21 , thank you. class 0

Hi team, can someone confirm the assay call for Cc1ccc(/C=N/NS(=O)(=O)c2ccc(/C=C3\NC(=O)NC3=O)cc2)cc1 ? class 0

Fill in: this test's call for COc1ccc(OC/C(N)=N/NC(=O)c2ccncc2)cc1 is ___ class 0

Now for a further molecule.
Any idea what this test logged for COc1ccc2c(c1)CC[C@@H]1C2CC[C@]2(C)C(=O)N(N)C(=O)CC12 (stereo not given in full) ? class 0

----------
test system: NCI-H522; experiment: NCI tumour cell line growth inhibition, 48 h
The source made the active and inactive calls. Cut-off read from the data, not from the text of the source: active = GI50 up to about 1.1 µM and inactive = higher.
Form field: GI50 (one value per entry).

Before answering, review these 5 worked examples.
Report the value of GI50 obtained on NCI-H522 for O=C1NC(=S)N(c2cccc3ccccc23)C(=O)/C1=C/c1c[nH]c2ccccc12 . 2.78 µM (inactive)

Lab note: NCI-H522 assay, enter GI50 for CC(=O)N1c2ccccc2Sc2cc(C(O)(C(F)(F)F)C(F)(F)F)ccc21 here > 10 µM (inactive)

Please tell me the measured GI50 for Clc1cc(C(c2cc(Cl)sc2Cl)c2cc(Cl)sc2Cl)c(Cl)s1 ; system: NCI-H522. > 100 µM (inactive)

Report value: GI50, system: NCI-H522, compound: COc1cc(C(C)(C)C)c(OC(=O)/C=C/C(=O)O/C=C/[N+](=O)[O-])c(C(C)(C)C)c1 29.9 µM (inactive)

Please respond with reported GI50 (system NCI-H522) for Cc1ccc(C)c2c1CC(Cc1ccccc1C(=O)O)C2=O (stereo not given) . > 100 µM (inactive)

***
Provide GI50, tested on NCI-H522, for Cc1cc(O)c(C(C)C)cc1C1(c2cc(C(C)C)c(O)cc2C)OC(=O)c2ccccc21 . 1.84 µM (inactive)

For NCI-H522, give GI50 of the listed compound: CO/[N+]([O-])=C\C(=O)N/C=C/C(=O)O > 100 µM (inactive)

Report GI50 from NCI-H522 testing of COc1cc(/C=C2\CCC/C(=C\c3ccc(O)c(OC)c3)C2=O)ccc1O 1.57 µM (inactive)

Please report the measured GI50 for Clc1sc(Cl)c2c1[C@@H](Cl)C[C@@H]2Cl tested on NCI-H522. 18.9 µM (inactive)

Write down the reported GI50 (system: NCI-H522) of CCOC(C[C@H](O[Si](C)(C)C(C)(C)C)[C@H]1COC(=S)S1)OCC 23.3 µM (inactive)

----------
GI50 overview
test system: OVCAR-8; experiment: NCI tumour cell line growth inhibition, 48 h
Calls of active or inactive are those of the source. No stated cut-off is given here; in the data, active = GI50 up to about 1.1 µM and inactive = higher.

Complete the entry with GI50 for CCOC(=O)c1c(-c2ccccc2)nc2c(OC)nccn12 > 100 µM (inactive)

Give the reported GI50 for this compound. CCOC(=O)c1cc(C)n(CN(CCO)Cn2nc(C(=O)OCC)cc2C)n1 22.7 µM (inactive)

Assign GI50 to the following record: Clc1ccc(-c2nc3ccc4ccccc4c3c3c2CCCC3)cc1 > 100 µM (inactive)

Kindly indicate its recorded GI50. Item: Cc1nn(C)c(=S)n(C)c1=O 0.571 µM (active)
